pIC50 values, listed per item
target or test system: Xenopus GCRP receptor (Xenopus)
experiment: radioligand binding; competitive displacement on HEK293T cells transfected with GCRPR (300 ng DNA/well, 12-well plates); 100,000 cpm 125I-chGCRP without or with various concentrations of cold peptides, 1 h, binding buffer (serum-free DMEM with 0.1% BSA, pH 7.4); IC50 by nonlinear regression
pIC50: −log10 of the molar value. Ends that are not written are not given here.

[
  {
    "binder": "HAEGTYTSDITSYLEGQAAKEFIAWLVNGR (also: unexplained 'a' after last residue) [Chicken GLP1]",
    "comparison operator": "<",
    "pIC50": 6.00
  },
  {
    "binder": "HSEGTFSSDLTRYLDKMKAKDFVQWLMN [Xenopus GCRP]",
    "comparison operator": "=",
    "pIC50": 7.18
  }
]

Hey, just so you know, these numbers are from paper PMC3679108.
